Origin of measurements: patent US20220144812A1

target.entity: EP300 (P300(1048-1664)) (Homo sapiens)
Construct: P300(1048-1664)
Sequence (Q09472 1048-1664): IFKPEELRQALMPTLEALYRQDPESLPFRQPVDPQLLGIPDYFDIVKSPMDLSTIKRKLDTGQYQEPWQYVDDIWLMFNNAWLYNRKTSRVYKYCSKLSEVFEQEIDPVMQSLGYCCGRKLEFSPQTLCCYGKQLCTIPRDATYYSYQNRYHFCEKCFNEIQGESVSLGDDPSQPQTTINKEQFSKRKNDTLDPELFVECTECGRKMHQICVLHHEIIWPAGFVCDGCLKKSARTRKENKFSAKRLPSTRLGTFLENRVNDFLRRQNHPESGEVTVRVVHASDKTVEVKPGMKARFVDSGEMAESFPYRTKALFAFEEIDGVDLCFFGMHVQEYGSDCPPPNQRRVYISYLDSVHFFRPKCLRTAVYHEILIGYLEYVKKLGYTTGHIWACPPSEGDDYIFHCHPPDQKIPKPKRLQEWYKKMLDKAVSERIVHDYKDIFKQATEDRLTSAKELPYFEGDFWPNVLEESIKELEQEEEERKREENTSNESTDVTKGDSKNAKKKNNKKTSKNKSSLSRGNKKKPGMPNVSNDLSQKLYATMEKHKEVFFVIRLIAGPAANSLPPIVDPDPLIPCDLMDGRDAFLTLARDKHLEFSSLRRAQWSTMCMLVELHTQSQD
assay.info: Biochemical assay for EP300, SAMDI
measurement.context: EP300, SAMDI; read-out: EP300 Biochemistry IC50
endpoint: IC50 (nM)
Give your result in nM as a bare value.

Below: 5 compounds and their reported IC50.
{"compound": "CCn1ncc(CN(C)C(=O)c2cc(-c3ccc4c[nH]nc4n3)nc3ccc(Cl)cc23)c1C [Compound 386]", "measurement": 10}
{"compound": "CCn1ncc(CN(C)C(=O)c2nc(-c3cc(C(F)(F)F)c4[nH]nc(NC)c4c3)nc3ccc(Cl)cc23)c1C [Compound 623]", "measurement": 28.3}
{"compound": "CCn1ncc(CN(C)C(=O)c2nc(-c3cc(C(=O)NCCN4CCCC4)[nH]n3)nc3ccc(Cl)cc23)c1C [Compound 80]", "measurement": 690}
{"compound": "CCn1ncc(CN(C)C(=O)c2nc(-c3cc(Cl)cc(NCCCNC)c3)nc3ccc(Cl)cc23)c1C [Compound 50]", "measurement": 5}
{"compound": "CCn1ncc(CN(C)C(=O)c2nc(-c3cnc(CO)n3C)nc3ccc(Cl)cc23)c1C [Compound 208]", "measurement": 36000}

Query :: Provide IC50 value for the following compound: CCn1ncc(CN(C)C(=O)c2nc(-c3ccc(OCCO)c(F)c3)nc3ccc(Cl)cc23)c1C [Compound 111]
Result :: 4700
